- System: UO-31 renal
- EXPERIMENT_NOTES: NCI tumour cell line growth inhibition, 48 h
OUTCOME_MEASURE: TGI

Worked set:
COMPOUND	TGI
CC(C)(C)c1ccc([I+]c2ccc(C(C)(C)C)cc2)cc1	14.8 µM
O=C1c2ccccc2C(=O)N1c1ccc(S(=O)(=O)Nc2ncccn2)cc1	> 100 µM
CN1C(c2ccccc2)=CC(=O)C(O)=C(c2ccccc2)S1(=O)=O	> 100 µM
CCOc1ccc2c(c1)/C(=C(\C(Cl)=C(Cl)Cl)[N+](=O)[O-])N2	> 100 µM
CC(C)C(C/C=C1/CC(CO)(COC(=O)CC(C(C)C)C(C)C)OC1=O)C(C)C (stereo not given)	19.9 µM
NC(=O)CCC(NCc1c2ccccc2[n+]([O-])c2ccccc12)C(=O)O (stereo not given)	> 100 µM

Note to self: TGI recorded for O=C1OCC(C#Cc2ccccc2)=C1Cl was > 100 µM

Note to self: TGI recorded for CS(=O)(=O)CCNCc1ccc(-c2ccc3ncnc(Nc4ccc(OCc5cccc(C(F)(F)F)c5)cc4)c3c2)o1 was 10.2 µM

Note to self: TGI recorded for COC(=O)CC1(CNC(=O)OCc2ccccc2)OCCO1 was > 100 µM

====

- Tested on: UO-31 renal
- EXPERIMENT_NOTES: NCI tumour cell line growth inhibition, 48 h
OUTCOME_MEASURE: TGI

Worked set:
O=C(O)CSCC(=O)Nc1ccc2cccc3c2c1CC3 > 100 µM
O=C(Nc1c(-c2nc3ccccc3[nH]2)sc(=S)n1-c1ccccc1)c1ccccc1 > 100 µM

For the next question, use this compound.
Note to self: TGI recorded for CCOc1ccccc1/C=C1\NC(=O)N(/C=C2\C(=O)Oc3ccccc3C2=O)C1=O was 75 µM

====

- Test system: SK-OV-3 ovarian
- EXPERIMENT_NOTES: NCI tumour cell line growth inhibition, 48 h
OUTCOME_MEASURE: TGI

Worked set:
COMPOUND	DATA_VALUE
OCCN(CCO)c1ccc2c(C(F)(F)F)cc(C(F)(F)F)nc2n1	> 100 µM
CC(=O)OC1COC(S[As](C)C)C(OC(C)=O)C1OC(C)=O (configuration not stated)	17.3 µM
C1COC(NC(C2CC2)C2CC2)=N1	> 100 µM

Note to self: TGI recorded for CCN(CC)c1ccc2c(c1)Oc1nc(N)c(C#N)c(N)c1C2Sc1ccc(SC)cc1 (configuration not stated) was 3.96 µM

Note to self: TGI recorded for CCCNC(=S)N/N=C/c1cccc(C)n1 was > 100 µM

Note to self: TGI recorded for CC(=O)N1CC2Nc3ccccc3C2CC1CO (configuration not stated) was > 100 µM

Note to self: TGI recorded for O=S1(=O)CCN(Cc2ccccn2)CC1 was > 100 µM

Note to self: TGI recorded for O=Cc1ccc(-c2ccc(-c3ccc(C=O)s3)o2)s1 was > 100 µM

Note to self: TGI recorded for CCSC1=N/C(=C\c2ccccc2O)C(Nc2ccc(C)cc2)=N1 was > 100 µM

Note to self: TGI recorded for COC(=O)c1ccccc1NC(=O)/C(=N\NC(C)(C)C)C(C#N)c1nc(-c2ccc([N+](=O)[O-])cc2)cs1 (configuration not stated) was > 100 µM

====

- Test system: NCI-H460 lung
Respond with a class label; see active, inactive

Study these solved cases before continuing.
COMPOUND	CLASS_LABEL
O=C1OCC(C#Cc2ccccc2)=C1Cl	inactive
COc1cc(CSc2nc3ccc(C)cc3c(=O)n2Cc2ccccc2)cc(OC)c1OC	inactive
CCCCC(=O)N/N=C/c1cc(I)cc(I)c1O	inactive
O=C(Nc1ccc(Br)cc1)Nc1n[nH]c2ccccc12	inactive
CCC[CH2][Sn]([CH2]CCC)([O]C(=O)c1cccc(F)c1)[O]C(=O)c1cccc(F)c1	inactive
CC(ONC(=O)c1cc(C(F)(F)F)cc(C(F)(F)F)c1)C(=O)Nc1ccc(Cl)cc1 (configuration not stated)	inactive

Write down the call the test reported for this compound. Item: C(=C1c2ccccc2-c2ccccc21)c1ccccn1
inactive

Write down the call the test reported for this compound. Item: CCC[C@H](N[C@@H]1CCc2cc(F)cc(F)c2C1)C(=O)Nc1cn(C(C)(C)CNCC(C)(C)C)cn1
inactive

====

- System: DMS 114 small cell lung
- EXPERIMENT_NOTES: NCI tumour cell line growth inhibition, 48 h
TGI overview

COMPOUND	DATA_VALUE
Cc1ccc(C(=O)C(C)N)cc1 (stereo not drawn)	> 100 µM
C=C1CC(CCCl)(c2ccccc2)OC1=O (stereo not drawn)	> 63.2 µM
O=c1/c(=C/c2ccc(Cl)cc2Cl)sc2nc3ccccc3n12	> 100 µM
O=C(O)/C(=C/c1ccccc1[N+](=O)[O-])c1ccccc1	> 100 µM
O=c1ccccc2cccc(O)c12	> 100 µM
Cc1c(-c2cc3n(n2)C(c2cccs2)C(C#N)=C(c2ccccc2)N3)c(=O)n(-c2ccccc2)n1C (stereo not drawn)	> 100 µM
CN(C)CCn1c2ccccc2c2nc3cc4ccccc4cc3nc21	20.7 µM

For the next question, use this compound.
Note to self: TGI recorded for CCCCCCCCCCCC(=O)OCC1OC(n2cc(F)c(=O)[nH]c2=O)C(N)C(OC(=O)CCCCCCCCCCC)C1O (stereo not drawn) was > 100 µM

====

TGI overview
- Tested on: SF-295 CNS
- EXPERIMENT_NOTES: NCI tumour cell line growth inhibition, 48 h

COMPOUND	TGI
CC(c1ccc(Br)cc1)C(C(=O)O)C(=O)O (stereo not drawn)	> 100 µM
O=c1[nH]c(Br)nc2c(Br)c[nH]c12	> 100 µM

Note to self: TGI recorded for N#CCC(=O)Nn1c(CC#N)nnc1Cc1ccccc1 was > 100 µM

====

- Test system: SNB-75 CNS
- EXPERIMENT_NOTES: NCI tumour cell line growth inhibition, 48 h
OUTCOME_MEASURE: TGI

Worked set:
COMPOUND	TGI
COC(OC)c1cccc2c1C1(O)CCC3(CC21)OCCCCO3 (stereo not drawn)	> 100 µM
Cc1c(C(=O)/C=C/c2ccc(Cl)cc2)[n+](=O)c2ccccc2n1[O-]	40.7 µM
CCSC1=N/C(=C\c2ccccc2O)C(Nc2ccc(C)cc2)=N1	> 100 µM
COc1ccc(C(c2ccc(C(C)C)cc(=O)c2O)c2c(O)cc3oc(-c4ccccc4)cc(=O)c3c2O)cc1 (stereo not drawn)	> 100 µM
C/C(=N\Nc1ccc([N+](=O)[O-])cc1[N+](=O)[O-])c1ccc2ccccc2n1	> 100 µM
C=C=C(C)[Si](C)(C)C	> 100 µM
CCCNCc1nc2ccc(Br)cc2c(=O)n1CCC	31.7 µM

Note to self: TGI recorded for COc1ccc2c(c1)C/C(=C\c1ccc(O)c(OC)c1)C2=O was > 100 µM

====

GI50 overview
- Test system: HT29 colon
- EXPERIMENT_NOTES: NCI tumour cell line growth inhibition, 48 h

Worked set:
COMPOUND	GI50
CCN(CC)CCOc1ccc(/C=C2\CC3C4CCC5=CC(=O)CC[C@]5(C)C4CC[C@]3(C)C2=O)cc1OC (stereo partly specified)	1.3 µM
O=C(COc1cccc(/C=C2\COc3ccccc3C2=O)c1)Nc1nccs1	1.94 µM
CCN(CC)c1ccc2c(c1)Oc1nc(N)c(C#N)c(N)c1C2Sc1ccc(SC)cc1 (stereo unspecified)	2.33 µM
CCC[CH2][Sn]([CH2]CCC)([O]C(=O)c1cccc(F)c1)[O]C(=O)c1cccc(F)c1	1.73 µM
COCCOC(=O)C1=C(C)NC2=C(C(=O)CC(c3ccccc3OC)C2)C1c1cccc(O)c1 (stereo unspecified)	5.38 µM

For the next question, use this compound.
Note to self: GI50 recorded for CC(=O)/C=C/C1=C(c2cc3ccccc3s2)c2ccccc2CC1 was 21 µM

====

- Test system: MDA-MB-435
- EXPERIMENT_NOTES: NCI tumour cell line growth inhibition, 48 h
TGI overview

Worked set:
COC(=O)C1=Nc2c(C)nn(-c3ccccc3)c2N=C(c2ccc(C)cc2)C1 > 10 µM
CCOC(=O)CC1(O)C=CC(=O)C=C1 4.89 µg/mL
O=S1(=O)CCN(Cc2ccccn2)CC1 > 100 µM

For the next question, use this compound.
TGI of N#Cc1[nH]c(=O)n(-c2ccc(Cl)cc2)c1N , assay on MDA-MB-435, is > 10 µM

====

- Test system: SNB-19 CNS
- EXPERIMENT_NOTES: NCI tumour cell line growth inhibition, 48 h
TGI overview

COMPOUND	DATA_VALUE
CC(C)(C)c1ccc(CN2CCN(C(c3ccccc3)c3ccc(Cl)cc3)CC2)cc1 (stereo unspecified)	> 100 µM
COC(=O)c1ccccc1NC(=O)/C(=N\NC(C)(C)C)C(C#N)c1nc(-c2ccc([N+](=O)[O-])cc2)cs1 (stereo unspecified)	> 100 µM
COP(C)(=O)/C(Cc1ccccc1)=N\O (stereo unspecified)	> 100 µM
C#C[C@]1(O)CC[C@H]2[C@@H]3CC=C4c5sc(N=C(N)N)nc5CC[C@]4(C)[C@H]3CC[C@@]21C	2.41 µM
COc1ccc2c(c1)C/C(=C\c1ccc(O)c(OC)c1)C2=O	> 100 µM

For the next question, use this compound.
Note to self: TGI recorded for COc1ccc(-c2n[nH]nc2-c2csc3ccccc23)cc1OC was 45.1 µM
